# Test system: PI3Kδ (p110δ/p85α) (Homo sapiens, UniProt O00329)
# Construct: purchased Invitrogen
# Sequence (O00329 whole entry): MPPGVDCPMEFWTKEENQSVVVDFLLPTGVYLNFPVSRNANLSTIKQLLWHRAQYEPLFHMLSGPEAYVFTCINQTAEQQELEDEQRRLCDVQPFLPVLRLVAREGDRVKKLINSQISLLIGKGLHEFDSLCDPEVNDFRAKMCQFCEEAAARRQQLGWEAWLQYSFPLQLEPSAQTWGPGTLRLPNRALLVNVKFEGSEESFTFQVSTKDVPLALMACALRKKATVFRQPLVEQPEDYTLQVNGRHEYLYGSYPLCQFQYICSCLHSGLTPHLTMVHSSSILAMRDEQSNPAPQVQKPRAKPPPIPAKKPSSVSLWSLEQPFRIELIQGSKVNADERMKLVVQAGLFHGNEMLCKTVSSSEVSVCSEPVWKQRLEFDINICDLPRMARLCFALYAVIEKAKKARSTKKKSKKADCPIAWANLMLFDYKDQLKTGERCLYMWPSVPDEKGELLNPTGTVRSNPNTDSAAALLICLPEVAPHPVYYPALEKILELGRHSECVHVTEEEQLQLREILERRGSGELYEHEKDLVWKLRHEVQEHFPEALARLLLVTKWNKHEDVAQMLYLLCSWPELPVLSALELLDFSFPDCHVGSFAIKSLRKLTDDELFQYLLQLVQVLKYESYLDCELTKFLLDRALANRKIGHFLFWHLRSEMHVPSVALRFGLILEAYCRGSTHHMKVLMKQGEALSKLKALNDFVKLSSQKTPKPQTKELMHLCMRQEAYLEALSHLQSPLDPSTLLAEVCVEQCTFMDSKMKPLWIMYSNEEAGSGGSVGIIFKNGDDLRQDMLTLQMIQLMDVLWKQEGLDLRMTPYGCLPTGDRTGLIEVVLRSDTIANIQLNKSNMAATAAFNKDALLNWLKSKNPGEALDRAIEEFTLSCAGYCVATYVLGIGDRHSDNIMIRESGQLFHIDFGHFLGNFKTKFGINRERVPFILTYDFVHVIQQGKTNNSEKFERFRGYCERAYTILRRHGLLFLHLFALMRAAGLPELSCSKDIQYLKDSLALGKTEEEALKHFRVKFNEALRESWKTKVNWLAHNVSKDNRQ
# Sequence (P27986 whole entry partner): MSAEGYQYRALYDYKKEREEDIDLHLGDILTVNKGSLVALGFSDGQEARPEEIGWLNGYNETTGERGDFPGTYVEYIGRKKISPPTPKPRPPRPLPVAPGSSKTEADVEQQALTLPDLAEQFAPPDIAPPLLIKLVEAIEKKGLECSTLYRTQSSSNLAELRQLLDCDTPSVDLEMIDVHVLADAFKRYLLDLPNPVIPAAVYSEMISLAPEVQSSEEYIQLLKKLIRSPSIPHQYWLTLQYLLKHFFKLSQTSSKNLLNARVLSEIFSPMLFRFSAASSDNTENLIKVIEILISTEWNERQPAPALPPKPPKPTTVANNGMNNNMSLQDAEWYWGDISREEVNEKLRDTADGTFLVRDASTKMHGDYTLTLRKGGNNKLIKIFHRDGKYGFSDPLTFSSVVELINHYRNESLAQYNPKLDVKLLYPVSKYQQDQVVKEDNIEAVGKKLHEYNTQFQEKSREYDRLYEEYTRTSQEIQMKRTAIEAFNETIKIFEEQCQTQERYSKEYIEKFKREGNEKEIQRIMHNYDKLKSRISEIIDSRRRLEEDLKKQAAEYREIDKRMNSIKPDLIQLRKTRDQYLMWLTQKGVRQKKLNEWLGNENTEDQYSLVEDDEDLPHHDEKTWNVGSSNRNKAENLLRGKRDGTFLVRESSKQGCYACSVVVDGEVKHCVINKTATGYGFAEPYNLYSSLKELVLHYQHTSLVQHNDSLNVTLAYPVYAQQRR
# Assay remarks: PI3K biochemical enzyme assay (Adapta universal kinase assay), p110 delta/p85 alpha
# Experimental parameters: 10 μM; read-out: PI3Kδ % inhib
Catalogue of inhibition at 10 µM values
Numbers only here, please. The scale is %.

As a guide, the following entries are already answered.
CC(Nc1ncnc2[nH]cnc12)c1nc2ccccc2nc1-c1c(F)cccc1F (stereo not shown) | 99
CC(Nc1ncnc2[nH]cnc12)c1nc2ccccc2nc1-c1ccccc1 (stereo not shown) | 100
CC(Nc1ncnc2[nH]cnc12)c1nc2ccccc2nc1-c1cc(F)cc(F)c1 (stereo not shown) | 100

Please find the next compound below.
Q) I'm curious: which inhibition at 10 µM was measured for Cc1cccc2nc(C(C)Nc3nc(N)nc4[nH]cnc34)c(-c3ccc(F)cc3)nc12 (stereo not shown) tested on PI3Kδ (p110δ/p85α) (Homo sapiens, UniProt O00329)?
A) 99
